Recorded inhibition at 10 µM values for a group of molecules are listed next.
test system: Jurkat; experiment: Activity on rosetting of jurkat T-cells with SRBC at the concentration of 10e-5 M; type: functional; conditions: Homo sapiens
Peptide text beside a SMILES is read from it.

- molecule: "CC(=O)N[C@@H](CO)C(=O)N[C@@H](CC(=O)O)C(=O)N[C@@H](CCCCN)C(=O)O (Ac-Ser-Asp-Lys-OH)"
  inhibition at 10 µM (%): 40
- molecule: "CC(=O)N[C@@H](CO)C(=O)N[C@@H](CC(=O)O)C(=O)N[C@@H](CCCCN)C(=O)N1CCC[C@H]1C(=O)O (stereo in doubt; form 1) [GORALATIDE]"
  inhibition at 10 µM (%): 48
- molecule: "NCCCC[C@H](NC(=O)[C@H](CC(=O)O)NC(=O)[C@@H](N)CO)C(=O)O (H-Ser-Asp-Lys-OH)"
  inhibition at 10 µM (%): 28
- molecule: "CC(=O)N[C@@H](CO)C(=O)N[C@@H](CC(=O)O)C(=O)O (Ac-Ser-Asp-OH)"
  inhibition at 10 µM (%): 30
- molecule: "CC(=O)N[C@@H](CO)C(=O)N[C@@H](CCC(=O)O)C(=O)N[C@@H](CCCCN)C(=O)N1CCC[C@H]1C(=O)O (Ac-SEKP-OH)"
  inhibition at 10 µM (%): 37
- molecule: "NCCCC[C@H](NC(=O)[C@H](CC(=O)O)NC(=O)[C@@H](N)CO)C(=O)N1CCC[C@H]1C(=O)O (H-SDKP-OH)"
  inhibition at 10 µM (%): 22
